molecular target: T1, COVID S1 RBM Fc fusion (Antigen 2) (SARS-CoV-2, UniProt P0DTC2 437-508); test: phage ELISA
T1 construct: domain: S1 RBM
Reported endpoint: specificity ELISA, fold over background (fold over background)

Binder	Measured
variant 2-12 (antibody, V domains shown) VH: EVQLLESGGGLVQPGGSLRLSCAASGFTFSDYPMNWVRQAPGKGLEWVSTISGSGGITFYADSVKGRFTISRDNSKNTLYLQMNSLRAEDTAVYYCVRHDEYSFDYWGQGTLVTVSS VL: DIQMTQSPSSLSASVGDRVTITCRASQSIDNYLNWYQQKPGKAPKLLIYGVSALQSGVPSRFSGSGSGTDFTLTISSLQPEDFATYYCQQSHSAPPYFFGQGTKVEIK	1.1
variant 2-1 (antibody, V domains shown) VH: EVQLLESGGGLVQPGGSLRLSCAASGFTFSNYATDWVRQAPGKGLEWVSIISGSGGATYYADSVKGRFTISRDNSKNTLYLQMNSLRAEDTAVYYCAKGGYCSSDTCWWEYWLDPWGQGTLVTVSS VL: DIQMTQSPSSLSASVGDRVTITCRASQSIHRFLNWYQQKPGKAPKLLIYAASNLHSGVPSRFSGSGSGTDFTLTISSLQPEDFATYYCQQSYGLPPTFGQGTKVEIK	1.5
variant 2-5 (antibody, V domains shown) VH: EVQLLESGGGLVQPGGSLRLSCAASGFTFSDFAMAWVRQAPGKGLEWVSAISGSGDITYYADSVKGRFTISRDNSKNTLYLQMNSLRAEDTAVYYCAREADGLHSPWHFDLWGQGTLVTVSS VL: DIQMTQSPSSLSASVGDRVTITCRASQSIHTYLNWYQQKPGKAPKLLIYAASALASGVPSRFSGSGSGTDFTLTISSLQPEDFATYYCQQSYSAPPYTFGQGTKVEIK	1.1
